Origin of values: patent US20260242735A1

- target-desc: human CD33 variant P48W (human, UniProt P20138 18-364)
- Sequence (P20138 18-364 P48W limits assumed): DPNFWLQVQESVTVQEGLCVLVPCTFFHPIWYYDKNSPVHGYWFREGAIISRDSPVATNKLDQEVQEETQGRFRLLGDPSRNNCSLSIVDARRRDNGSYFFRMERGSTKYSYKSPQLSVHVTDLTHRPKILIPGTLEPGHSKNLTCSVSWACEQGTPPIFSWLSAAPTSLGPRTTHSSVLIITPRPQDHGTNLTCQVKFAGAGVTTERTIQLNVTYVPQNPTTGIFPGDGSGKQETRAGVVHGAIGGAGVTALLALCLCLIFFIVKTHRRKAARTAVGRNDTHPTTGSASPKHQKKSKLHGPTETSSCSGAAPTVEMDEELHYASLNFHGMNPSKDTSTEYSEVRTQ
- measurement-protocol: flow cytometry, IgG on cells expressing the mutant
Task for the reader: assign each of the following binders its reported Mean % WT Binding.

Prompt: Which Mean % WT Binding reading was recorded for the binder Refmab #4 (antibody, human IgG1, V domains shown, Tested in IgG format; human IgG1 Fc silent (PG-LALA)) VH: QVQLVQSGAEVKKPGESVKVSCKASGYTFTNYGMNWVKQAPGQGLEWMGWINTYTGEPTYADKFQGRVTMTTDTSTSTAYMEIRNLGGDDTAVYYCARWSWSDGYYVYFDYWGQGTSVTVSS VL: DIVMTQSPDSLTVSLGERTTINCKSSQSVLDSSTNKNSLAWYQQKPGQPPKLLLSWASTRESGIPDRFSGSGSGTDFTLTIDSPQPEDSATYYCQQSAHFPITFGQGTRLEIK ?
Completion: 1.3 % of WT

Prompt: Which Mean % WT Binding reading was recorded for the binder Refmab #1 (antibody, human IgG1, V domains shown, Tested in IgG format; human IgG1 (Absolute Antibody hP67.6, Cat. No. Ab00283-10.0); also called hP67.6) VH: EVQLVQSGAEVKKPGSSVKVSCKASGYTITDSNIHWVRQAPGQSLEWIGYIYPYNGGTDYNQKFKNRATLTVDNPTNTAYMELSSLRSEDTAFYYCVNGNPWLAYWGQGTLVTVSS VL: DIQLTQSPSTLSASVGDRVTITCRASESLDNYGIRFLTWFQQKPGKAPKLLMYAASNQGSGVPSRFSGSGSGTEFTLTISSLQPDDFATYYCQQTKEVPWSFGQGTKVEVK ?
Completion: 95.6 % of WT

Prompt: Which Mean % WT Binding reading was recorded for the binder Refmab #3 (antibody, human IgG1, V domains shown, Tested in IgG format; human IgG1 Fc silent (PG-LALA)) VH: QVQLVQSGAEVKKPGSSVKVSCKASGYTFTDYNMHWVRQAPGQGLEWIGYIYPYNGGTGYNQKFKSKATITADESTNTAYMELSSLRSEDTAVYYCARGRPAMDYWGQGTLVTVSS VL: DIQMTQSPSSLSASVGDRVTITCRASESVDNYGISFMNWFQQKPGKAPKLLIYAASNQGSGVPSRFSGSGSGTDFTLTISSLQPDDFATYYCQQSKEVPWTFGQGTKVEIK ?
Completion: 96.4 % of WT

Prompt: Which Mean % WT Binding reading was recorded for the binder Refmab #2 (antibody, human IgG1, V domains shown, Tested in IgG format; human IgG1 Fc silent (PG-LALA)) VH: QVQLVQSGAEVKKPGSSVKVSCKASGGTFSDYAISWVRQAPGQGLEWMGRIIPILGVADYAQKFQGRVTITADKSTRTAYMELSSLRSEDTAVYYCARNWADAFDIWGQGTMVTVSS VL: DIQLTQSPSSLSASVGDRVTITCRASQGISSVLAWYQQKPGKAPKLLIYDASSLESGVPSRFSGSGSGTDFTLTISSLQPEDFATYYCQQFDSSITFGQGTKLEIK ?
Completion: 68.8 % of WT
